- Experimental System: viral sialidase activity of A/Shizuoka/17/2016 (H1N1pdm) (Influenza A virus)
- Condition Set: read-out: IC50 values in the sialidase inhibition assay
pIC50: −log10 of the molar value.
Quantity Name: pIC50

[[record]]
smiles_record = "CCC(CC)[C@H](NC(C)=O)[C@@H]1[C@H](O)[C@@H](C(=O)O)C[C@H]1N=C(N)N"
quantity_name = "pIC50"
measured_number = 10.30


----------
- Experimental System: viral sialidase activity of A/Shizuoka/19/2016 (H1N1pdm) (Influenza A virus, UniProt A0A0X9QTS2)
- Type: biochemical
- Condition Set: read-out: IC50 values in the sialidase inhibition assay
Quantity Name: IC50 (pM)

[[record]]
smiles_record = "CCC(CC)[C@H](NC(C)=O)[C@@H]1[C@H](O)[C@@H](C(=O)O)C[C@H]1N=C(N)N"
quantity_name = "IC50"
measured_number = 50


----------
- Experimental System: viral sialidase activity of A/Shizuoka/30/2014 (H1N1pdm), H275Y (Influenza A virus, UniProt W8DXJ8, H275Y)
- Condition Set: read-out: IC50 values in the sialidase inhibition assay
Quantity Name: IC50 (nM)

[[record]]
smiles_record = "CCC(CC)[C@H](NC(C)=O)[C@@H]1[C@H](O)[C@@H](C(=O)O)C[C@H]1N=C(N)N"
quantity_name = "IC50"
unit_name = "nM"
measured_number = 79


----------
- Experimental System: viral sialidase activity of A/Shizuoka/1573/2009 (H1N1pdm), H275Y (Influenza A virus, UniProt C3W5S3, H275Y)
- Type: biochemical
- Condition Set: read-out: IC50 values in the sialidase inhibition assay
pIC50: −log10 of the molar value.
Quantity Name: pIC50

[[record]]
smiles_record = "CCC(CC)[C@H](NC(C)=O)[C@@H]1[C@H](O)[C@@H](C(=O)O)C[C@H]1N=C(N)N"
quantity_name = "pIC50"
measured_number = 7.39

